biological target: UniProtKB O00763; assay: Acetyl CoA carboxylase (ACC) activity inhibition test, human ACC2; format: biochemical; settings: 1 μmol/liter compound; [14C] bicarbonate fixation, 37° C., 40 minutes; read-out: Inhibition (%) by 1 μmol/liter Chemical, human ACC2
Sequence (O00763 whole entry): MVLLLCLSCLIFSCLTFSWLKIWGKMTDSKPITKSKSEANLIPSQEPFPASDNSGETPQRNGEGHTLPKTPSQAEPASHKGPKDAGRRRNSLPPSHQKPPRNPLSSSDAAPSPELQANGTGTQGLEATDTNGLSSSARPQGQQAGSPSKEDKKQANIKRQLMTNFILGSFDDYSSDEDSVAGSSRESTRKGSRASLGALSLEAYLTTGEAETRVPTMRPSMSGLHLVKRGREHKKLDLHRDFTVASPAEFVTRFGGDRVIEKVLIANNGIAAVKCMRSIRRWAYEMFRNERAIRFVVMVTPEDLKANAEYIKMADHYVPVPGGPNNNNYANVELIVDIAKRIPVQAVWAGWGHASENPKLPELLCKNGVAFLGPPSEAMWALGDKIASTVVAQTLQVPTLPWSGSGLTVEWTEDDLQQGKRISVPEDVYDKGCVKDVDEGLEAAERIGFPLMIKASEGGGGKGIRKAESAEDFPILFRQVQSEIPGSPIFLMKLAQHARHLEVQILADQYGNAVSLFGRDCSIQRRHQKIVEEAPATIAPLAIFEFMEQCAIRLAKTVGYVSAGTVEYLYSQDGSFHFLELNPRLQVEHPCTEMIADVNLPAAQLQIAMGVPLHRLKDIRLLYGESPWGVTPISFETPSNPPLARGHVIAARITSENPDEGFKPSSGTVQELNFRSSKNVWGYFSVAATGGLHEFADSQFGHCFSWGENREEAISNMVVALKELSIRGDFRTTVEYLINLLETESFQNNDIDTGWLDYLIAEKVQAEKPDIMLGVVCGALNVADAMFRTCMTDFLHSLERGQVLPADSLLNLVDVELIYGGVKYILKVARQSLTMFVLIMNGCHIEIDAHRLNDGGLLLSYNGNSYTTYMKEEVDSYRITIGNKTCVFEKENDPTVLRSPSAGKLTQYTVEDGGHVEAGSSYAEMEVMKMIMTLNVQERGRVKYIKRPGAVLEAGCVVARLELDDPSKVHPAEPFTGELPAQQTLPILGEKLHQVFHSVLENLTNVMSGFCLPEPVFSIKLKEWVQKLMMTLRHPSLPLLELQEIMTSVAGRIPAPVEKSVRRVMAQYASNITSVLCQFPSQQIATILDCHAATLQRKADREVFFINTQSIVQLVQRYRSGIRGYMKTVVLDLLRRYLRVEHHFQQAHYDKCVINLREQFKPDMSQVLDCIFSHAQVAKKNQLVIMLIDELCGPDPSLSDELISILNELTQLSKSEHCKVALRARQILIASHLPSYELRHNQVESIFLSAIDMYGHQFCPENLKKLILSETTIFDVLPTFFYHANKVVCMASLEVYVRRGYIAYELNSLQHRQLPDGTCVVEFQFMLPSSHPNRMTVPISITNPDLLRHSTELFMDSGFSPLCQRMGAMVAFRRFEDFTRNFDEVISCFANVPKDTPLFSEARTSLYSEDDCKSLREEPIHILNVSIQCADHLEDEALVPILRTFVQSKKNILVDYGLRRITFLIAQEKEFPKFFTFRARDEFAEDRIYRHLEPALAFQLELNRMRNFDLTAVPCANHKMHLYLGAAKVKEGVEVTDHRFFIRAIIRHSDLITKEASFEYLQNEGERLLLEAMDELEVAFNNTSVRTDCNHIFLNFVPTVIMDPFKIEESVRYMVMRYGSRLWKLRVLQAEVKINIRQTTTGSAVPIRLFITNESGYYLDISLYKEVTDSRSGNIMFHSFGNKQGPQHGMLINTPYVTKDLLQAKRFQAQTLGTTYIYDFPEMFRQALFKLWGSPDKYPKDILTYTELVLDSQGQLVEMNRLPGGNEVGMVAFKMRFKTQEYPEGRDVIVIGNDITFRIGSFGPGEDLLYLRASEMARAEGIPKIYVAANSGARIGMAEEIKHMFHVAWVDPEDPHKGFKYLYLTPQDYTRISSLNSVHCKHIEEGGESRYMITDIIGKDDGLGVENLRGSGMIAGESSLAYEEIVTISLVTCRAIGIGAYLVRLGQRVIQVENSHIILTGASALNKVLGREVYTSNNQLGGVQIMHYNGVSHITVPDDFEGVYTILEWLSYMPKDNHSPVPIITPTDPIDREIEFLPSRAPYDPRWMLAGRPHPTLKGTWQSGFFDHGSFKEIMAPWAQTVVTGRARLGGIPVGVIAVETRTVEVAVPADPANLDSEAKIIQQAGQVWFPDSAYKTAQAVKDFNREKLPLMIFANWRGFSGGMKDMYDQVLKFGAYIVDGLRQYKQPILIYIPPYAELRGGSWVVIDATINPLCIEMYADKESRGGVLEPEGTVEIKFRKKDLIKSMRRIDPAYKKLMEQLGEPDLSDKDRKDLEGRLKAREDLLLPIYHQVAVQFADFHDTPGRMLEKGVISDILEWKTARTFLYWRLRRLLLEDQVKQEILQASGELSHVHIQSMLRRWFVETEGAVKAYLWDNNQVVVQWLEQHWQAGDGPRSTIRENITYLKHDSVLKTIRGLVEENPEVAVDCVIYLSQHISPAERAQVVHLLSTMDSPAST
measured-attribute: inhibition at 1 µM

| compound | measured-attribute | assay-result |
| --- | --- | --- |
| CCOc1cc(C(=O)N2CCC3(CC2)CC(=O)c2cc(-c4ccc(C(N)=O)cn4)ccc2O3)cc(OC)c1-c1cnn(C)c1 [Example 77] | inhibition at 1 µM | 99% |
| CCOc1cc(C(=O)N2CCC3(CC2)CC(=O)c2cc(-c4cnn(C)c4)ccc2O3)cc(OC)c1-c1cnn(C)c1 [Example 79] | inhibition at 1 µM | 99% |
| CCOc1cc(C(=O)N2CCC3(CC2)CC(=O)c2cc(-c4cncc(C(=O)O)c4)ccc2O3)cc(OCC)c1-c1cnn(C)c1 [Example 25] | inhibition at 1 µM | 99% |
| COc1cc(C(=O)N2CCC3(CC2)CC(=O)c2cc(-c4nnn[nH]4)ccc2O3)cc(OC)c1-c1ccccc1 [Example 5] | inhibition at 1 µM | 97% |

* * *

inhibition at 1 µM overview
molecular target: UniProtKB O00763; assay: Acetyl CoA carboxylase (ACC) activity inhibition test, human ACC2; format: biochemical; settings: 1 μmol/liter compound; [14C] bicarbonate fixation, 37° C., 40 minutes; read-out: Inhibition (%) by 1 μmol/liter Chemical, human ACC2
measured-attribute: inhibition at 1 µM (%)

| compound | assay-result |
| --- | --- |
| Cc1nn(-c2ccccn2)c2sc(C(=O)N3CCC4(CC3)CC(=O)c3cc(-c5nnn[nH]5)ccc3O4)cc12 [Example 51] | 89 |
| CCOc1cc(C(=O)N2CCC3(CC2)CC(=O)c2cc(-c4nnn(COC(=O)C(C)(C)C)n4)ccc2O3)cc(OC)c1-c1cnn(C)c1 [Example 63] | 97 |
| CCOc1cc(C(=O)N2CCC3(CC2)CC(=O)c2cc(-c4nnn[nH]4)ccc2O3)cc(OCC)c1-c1cnn(C)c1 [Example 12] | 99 |
| Cn1cc(-c2ccc3c(c2)C(=O)CC2(CCN(C(=O)c4cc(-c5nnn[nH]5)c5ccn(C6CC6)c5c4)CC2)O3)cn1 [Example 42] | 99 |
| COc1cc(C(=O)N2CCC3(CC2)CC(=O)c2cc(-c4ccc(C(N)=O)cn4)ccc2O3)cc(OC)c1-c1cnn(C)c1 [Example 68] | 99 |
| CCOc1cc(C(=O)N2CCC3(CC2)CC(=O)c2cc(-c4nnn[nH]4)ccc2O3)cc(OC)c1-c1cnn(C)c1 [Example 29] | 99 |
| CCOc1cc(C(=O)N2CCC3(CC2)CC(=O)c2cc(-c4ccc(C(=O)O)cn4)ccc2O3)cc(OCC)c1-c1cnn(C)c1 [Example 71] | 99 |
| Cn1nc(-c2ccccc2)c2ccc(C(=O)N3CCC4(CC3)CC(=O)c3cc(-c5nnn[nH]5)ccc3O4)cc21 [Example 56] | 98 |
| CCOc1cc(C(=O)N2CCC3(CC2)CC(=O)c2cc(-c4ccnc(C(=O)O)c4)ccc2O3)cc(OCC)c1-c1cnn(C)c1 [Example 37] | 99 |

* * *

molecular target: human ACC1 (Homo sapiens); assay: Acetyl CoA carboxylase (ACC) activity inhibition test, human ACC1; assay type: biochemical; conditions: 1 μmol/liter compound; [14C] bicarbonate fixation, 37° C., 40 minutes; read-out: Inhibition (%) by 1 μmol/liter Chemical, human ACC1

| compound | inhibition at 1 µM (%) |
| --- | --- |
| COc1cc(C(=O)N2CCC3(CC2)CC(=O)c2cc(-c4ccc(C(N)=O)cn4)ccc2O3)cc(OC)c1-c1cnn(C)c1 [Example 68] | 99 |
| CCOc1cc(C(=O)N2CCC3(CC2)CC(=O)c2cc(-c4nnn(COC(=O)C(C)(C)C)n4)ccc2O3)cc(OC)c1-c1cnn(C)c1 [Example 63] | 93 |
| COc1cc(C(=O)N2CCC3(CC2)CC(=O)c2cc(-c4nnn[nH]4)ccc2O3)cc(OC)c1-c1ccccc1 [Example 5] | 94 |
| CCOc1cc(C(=O)N2CCC3(CC2)CC(=O)c2cc(-c4nnn[nH]4)ccc2O3)cc(OC)c1-c1cnn(C)c1 [Example 29] | 99 |
| Cn1nc(-c2ccccc2)c2ccc(C(=O)N3CCC4(CC3)CC(=O)c3cc(-c5nnn[nH]5)ccc3O4)cc21 [Example 56] | 99 |
| CCOc1cc(C(=O)N2CCC3(CC2)CC(=O)c2cc(-c4ccc(C(N)=O)cn4)ccc2O3)cc(OC)c1-c1cnn(C)c1 [Example 77] | 99 |
| CCOc1cc(C(=O)N2CCC3(CC2)CC(=O)c2cc(-c4ccnc(C(=O)O)c4)ccc2O3)cc(OCC)c1-c1cnn(C)c1 [Example 37] | 100 |
| CCOc1cc(C(=O)N2CCC3(CC2)CC(=O)c2cc(-c4cnn(C)c4)ccc2O3)cc(OC)c1-c1cnn(C)c1 [Example 79] | 99 |
| Cc1nn(-c2ccccn2)c2sc(C(=O)N3CCC4(CC3)CC(=O)c3cc(-c5nnn[nH]5)ccc3O4)cc12 [Example 51] | 98 |
| CCOc1cc(C(=O)N2CCC3(CC2)CC(=O)c2cc(-c4nnn[nH]4)ccc2O3)cc(OCC)c1-c1cnn(C)c1 [Example 12] | 100 |
| CCOc1cc(C(=O)N2CCC3(CC2)CC(=O)c2cc(-c4ccc(C(=O)O)cn4)ccc2O3)cc(OCC)c1-c1cnn(C)c1 [Example 71] | 99 |
| Cn1cc(-c2ccc3c(c2)C(=O)CC2(CCN(C(=O)c4cc(-c5nnn[nH]5)c5ccn(C6CC6)c5c4)CC2)O3)cn1 [Example 42] | 98 |
| CCOc1cc(C(=O)N2CCC3(CC2)CC(=O)c2cc(-c4cncc(C(=O)O)c4)ccc2O3)cc(OCC)c1-c1cnn(C)c1 [Example 25] | 100 |
